Value source: patent US5198458A

Each entry below carries its recorded LD50.
# procedure_details: Acute toxicity test in mice
# measurement_setup: mouse, in vivo, ip; intraperitoneal, in DMSO, five mice per group
I only need the number, in mg/kg, no unit after it.

Task: Need LD50, item C=CCOc1ccccc1CCCC(=O)N1CCC[C@H]1C(=O)N1CCCC1
Output: 390

###

# target_or_test_system: prolyl endopeptidase (Elizabethkingia meningoseptica, UniProt P27028)
# Sequence (P27028 21-705): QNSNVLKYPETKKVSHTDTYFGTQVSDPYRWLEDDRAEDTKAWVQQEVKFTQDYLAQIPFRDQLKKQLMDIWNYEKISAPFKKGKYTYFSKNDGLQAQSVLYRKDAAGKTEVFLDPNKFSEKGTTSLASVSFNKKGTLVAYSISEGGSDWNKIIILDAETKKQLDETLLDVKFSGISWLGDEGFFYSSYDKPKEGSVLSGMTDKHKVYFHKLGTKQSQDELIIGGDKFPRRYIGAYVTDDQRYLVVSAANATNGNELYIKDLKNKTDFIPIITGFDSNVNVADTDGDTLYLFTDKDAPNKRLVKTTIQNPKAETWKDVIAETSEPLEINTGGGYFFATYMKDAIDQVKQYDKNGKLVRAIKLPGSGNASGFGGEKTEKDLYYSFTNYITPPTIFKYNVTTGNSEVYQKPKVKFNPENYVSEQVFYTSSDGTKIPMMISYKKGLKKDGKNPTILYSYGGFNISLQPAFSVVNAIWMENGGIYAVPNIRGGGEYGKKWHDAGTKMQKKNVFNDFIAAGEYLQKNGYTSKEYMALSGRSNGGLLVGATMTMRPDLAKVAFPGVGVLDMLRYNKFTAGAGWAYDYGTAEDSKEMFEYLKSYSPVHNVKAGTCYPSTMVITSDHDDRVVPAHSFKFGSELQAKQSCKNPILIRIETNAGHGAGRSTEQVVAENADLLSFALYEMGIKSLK
# Assay type: biochemical
# measurement_setup: amount per test tube for 50% inhibition; pH 7.0, 35° C., 10 minutes
attribute_measured: IC50 (μg/test tube)
I only need the number, in μg/test tube, no unit after it.

// solved cases for IC50 follow
[[record]]
structure_smiles = "O=C([C@@H]1CCCN1C(=O)CCCCOc1ccc(Oc2ccccc2)cc1)N1CCCC1"
target_or_test_system = "prolyl endopeptidase (Elizabethkingia meningoseptica, UniProt P27028)"
scale_unit = "μg/test tube"
numeric_value = 0.009

[[record]]
structure_smiles = "C=CCOc1ccccc1CCCC(=O)N1CCC[C@H]1C(=O)N1CCCC1"
target_or_test_system = "prolyl endopeptidase (Elizabethkingia meningoseptica, UniProt P27028)"
scale_unit = "μg/test tube"
numeric_value = 0.01

[[record]]
structure_smiles = "O=C([C@@H]1CCCN1C(=O)CCCOc1ccccc1CCc1ccccc1)N1CCCC1"
target_or_test_system = "prolyl endopeptidase (Elizabethkingia meningoseptica, UniProt P27028)"
scale_unit = "μg/test tube"
numeric_value = 0.002


Task: Need IC50, item O=C([C@@H]1CCCN1C(=O)CCCOc1ccccc1)N1CCCC1
Output: 0.001
